Hi there, I'd appreciate the recorded cell viability for every entry that follows.
system: SEM cells; assay: cell viability relative to DMSO control; higher = less cytotoxic; settings: RPMI 5 mM glucose + 10% dialyzed FBS; 48 h; 0.0211 µM
The reply should contain only the number, in %.

q: Dear colleague, please send me the reported cell viability for C[N]1C=C(C2=C1C=CC=C2)\C3=C(\C(=O)NC3=O)C4=C5CC(CN)CC[N]5C6=C4C=CC=C6 (stereo not given) when you can.
a: 107

q: Dear colleague, please send me the reported cell viability for "CC[C@H](C)[N]1C=C(C)C2=C1C=C(C=C2C(=O)NC\C3=C(C)\C=C(\C)NC3=O)C4=CC=C(N=C4)N5CCNCC5" when you can.
a: 108

q: Dear colleague, please send me the reported cell viability for "C[C@]1(c2nc3c(C(N)=O)cccc3[nH]2)CCCN1" when you can.
a: 87.2

q: Dear colleague, please send me the reported cell viability for "CCC[C@H]1C[C@H](C(=O)N[C@@H]([C@@H]2O[C@@H](SC)[C@@H](O)[C@@H](O)[C@H]2O)[C@H](C)Cl)N(C)C1" when you can.
a: 87.3

q: Dear colleague, please send me the reported cell viability for "CN1C[C@H]2c3ccccc3Oc3ccc(Cl)cc3[C@@H]2C1" when you can.
a: 83.3

----------
Hi there, I'd appreciate the recorded cell viability for every entry that follows.
test system: P12-Ichikawa; experiment: cell viability relative to DMSO control; higher = less cytotoxic; conditions: RPMI 5 mM glucose + 10% FBS; 48 h; 0.00702 µM
The reply should contain only the number, in %.

q: Dear colleague, please send me the reported cell viability for "N[C@H](CSC(c1ccccc1)(c1ccccc1)c1ccccc1)C(=O)O" when you can.
a: 115

q: Dear colleague, please send me the reported cell viability for "CN1C[C@H]2c3ccccc3Oc3ccc(Cl)cc3[C@@H]2C1" when you can.
a: 95.6

q: Dear colleague, please send me the reported cell viability for OC1CCC(Nc2ncc3nc(Nc4c(F)cc(F)cc4F)n([C@@H]4CCOC4)c3n2)CC1 (some centres undefined) when you can.
a: 114

q: Dear colleague, please send me the reported cell viability for "CN(C)C1=CC=C(C=C1)C(C2=CC=C(C=C2)N(C)C)=C/3\C=C/C(/C=C3)=[N+](C)C" when you can.
a: 102

q: Dear colleague, please send me the reported cell viability for "C[C@@H]\1CC(=O)N\N=C1C2=CC=C(NN=C(C#N)C#N)C=C2" when you can.
a: 92.2

q: Dear colleague, please send me the reported cell viability for CNC1CCC(N(Cc2cccc(-c3ccncc3)c2)C(=O)c2sc3c(F)ccc(F)c3c2Cl)CC1 (centres undefined) when you can.
a: 98.2

q: Dear colleague, please send me the reported cell viability for "CC1(C)O[C@@H]2C[C@H]3[C@@H]4CCC5=CC(=O)C=C[C@]5(C)[C@H]4[C@@H](O)C[C@]3(C)[C@]2(C(=O)CO)O1" when you can.
a: 107

q: Dear colleague, please send me the reported cell viability for "CC/1=C(/N2[C@H](SC1)[C@H](NC(=O)[C@H](N)\C3=C\C\C=C/C3)C2=O)C(O)=O" when you can.
a: 110

q: Dear colleague, please send me the reported cell viability for "CSCC[C@@H](NC(=O)[C@@H](Cc1ccccc1)NC(=O)CNC(=O)CNC(=O)[C@@H](N)Cc1ccc(O)cc1)C(=O)O" when you can.
a: 101

q: Dear colleague, please send me the reported cell viability for "COc1cc2ncnc(Nc3ccc(F)c(Cl)c3)c2cc1NC(=O)/C=C/CN1CCCCC1" when you can.
a: 103

q: Dear colleague, please send me the reported cell viability for CCOC(=O)\C1=C(/C)N\C2=C(C1C3=CC=C(C=C3)C4=CC=CC=C4)\C(=O)CC(C)(C)C2 (centres undefined) when you can.
a: 117

q: Dear colleague, please send me the reported cell viability for "O=C1c2c(O)ccc(O)c2C(=O)c2c(NCCNCCO)ccc(NCCNCCO)c21" when you can.
a: 96.7

q: Dear colleague, please send me the reported cell viability for "CNC(=O)c1ccc(N2C(=S)N(c3ccc(C#N)c(C(F)(F)F)c3)C(=O)C23CCC3)cc1F" when you can.
a: 101

q: Dear colleague, please send me the reported cell viability for OC[C@H]1OCC(O1)[N@@]2C=CC(N)=NC2=O (some centres undefined) when you can.
a: 117

Numbers sourced from the supplement of paper PMC11451515.
